Molecular target: Sigma intracellular receptor 2 (Rattus norvegicus, UniProt Q5U3Y7)
Sequence (Q5U3Y7 whole entry): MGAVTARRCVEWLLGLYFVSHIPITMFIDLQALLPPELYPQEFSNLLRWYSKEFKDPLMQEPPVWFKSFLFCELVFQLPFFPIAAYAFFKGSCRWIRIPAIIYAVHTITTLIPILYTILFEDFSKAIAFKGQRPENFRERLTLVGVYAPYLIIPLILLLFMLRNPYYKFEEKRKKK
Experiment: Displacement of [3H]-DTG from sigma2 receptor in rat liver membranes
Assay type: cell membranes, Membrane
measured endpoint: Ki (nM)
Numbers only here, please. The scale is nM.

COc1cc2c(cc1OC)CN(CCCCNC(=O)c1cc(Br)cc(OC)c1OC)CC2; 8.2

Please look at the following compound next.
In plain terms, COc1cccc2c1CCCC2CCCN1CCN(C2CCCCC2)CC1 (configuration not stated) has a documented Ki of 0.68

###

Target: Sigma non-opioid intracellular receptor 1 (Cavia porcellus)
Sequence (Q60492 whole entry): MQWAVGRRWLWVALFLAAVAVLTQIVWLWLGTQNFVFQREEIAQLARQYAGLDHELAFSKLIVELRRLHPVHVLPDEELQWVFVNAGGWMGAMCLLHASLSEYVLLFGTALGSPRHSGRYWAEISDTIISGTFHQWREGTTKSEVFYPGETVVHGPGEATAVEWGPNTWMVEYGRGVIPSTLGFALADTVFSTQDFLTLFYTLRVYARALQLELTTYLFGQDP
Experiment: Displacement of [3H]-(+)-pentazocine from sigma1 receptor in guinea pig brain cortex membranes incubated for 120 mins by scintillation counting method
Format: cell membranes
measured endpoint: Ki
Number first, unit second: that is the form wanted.

OCC[C@@H]1Cc2ccccc2C2(CCC(N3CCN(C4CCCCC4)CC3)CC2)O1 (stereo not given in full); 61 nM
FCC[C@H]1Cc2ccccc2C2(CCC(NC3CCc4ccccc4CC3)CC2)O1 (stereo not given in full); 198 nM
Cc1ccc(CNC2CCC3(CC2)O[C@@H](CCF)Cc2ccccc23)c(C)c1 (stereo not given in full); 966 nM
Fc1ccc(-n2cc(CCCCN3CCC4(CC3)OCc3ccccc34)c3ccccc32)cc1; 17 nM
CO[C@H]1Cc2ccccc2C2(CCC(NC3CCc4ccccc4CC3)CC2)O1 (stereo not given in full); 265 nM
CO[C@@H]1Cc2ccccc2C2(CCC(N3CCN(C4CCCCC4)CC3)CC2)O1 (stereo not given in full); 6.3 nM
Cc1ccc(CNC2CCC3(CC2)O[C@@H](CCO)Cc2ccccc23)c(C)c1 (stereo not given in full); 548 nM
O[C@H]1Cc2ccccc2C2(CCC(N3CCN(C4CCCCC4)CC3)CC2)O1 (stereo not given in full); 47 nM
OCC[C@H]1Cc2ccccc2C2(CCC(N3CCN(C4CCCCC4)CC3)CC2)O1 (stereo not given in full); 28 nM

Please look at the following compound next.
In plain terms, CO[C@H]1Cc2ccccc2C2(CCC(NCc3ccccc3)CC2)O1 (stereo not given in full) has a documented Ki of 158 nM
